Hello, the source for this data is the supplement of paper PMC6555819, in case you need it.

- Tested on: RARa:RXR (NR concentration 270 nM, RXRa partner concentration 90 nM)
- measurement.description: PBM binding z-score (relative to random genomic background probes); higher = stronger binding; sequences stand for … in GC…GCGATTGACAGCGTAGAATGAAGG
Kindly state PBM binding z-score for each of the entries shown.

Check out these entries, answers already filled in.
> print(dat)
                           seq.string  readout.value
1  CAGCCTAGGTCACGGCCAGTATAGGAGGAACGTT           3.45
2  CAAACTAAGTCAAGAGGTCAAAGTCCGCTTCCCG           6.57
3  CCGAGTCGGTTATGGGGCATTCAGGCAACGGTGA         -0.567
4  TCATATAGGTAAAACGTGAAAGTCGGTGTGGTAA          0.571
5  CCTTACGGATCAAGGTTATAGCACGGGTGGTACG          0.636
6  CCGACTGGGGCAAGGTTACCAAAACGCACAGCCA           1.09
7  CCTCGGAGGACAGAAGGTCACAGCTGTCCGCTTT           4.13
8  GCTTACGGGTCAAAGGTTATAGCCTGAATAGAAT           8.66

For each listed entry, give its PBM binding z-score.
1. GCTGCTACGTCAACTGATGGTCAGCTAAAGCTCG
2. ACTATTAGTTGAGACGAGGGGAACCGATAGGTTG
3. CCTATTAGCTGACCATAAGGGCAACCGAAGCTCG
4. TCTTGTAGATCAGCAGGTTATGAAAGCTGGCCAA
5. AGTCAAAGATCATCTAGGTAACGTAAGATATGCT
6. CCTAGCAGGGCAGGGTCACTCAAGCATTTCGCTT

-0.62
-0.00202
0.375
0.383
0.277
3.98

###

Kindly state PBM binding z-score for each of the entries shown.
- Test system: RARb:RXRa (NR concentration 270 nM, RXRa partner concentration 90 nM)
- measurement.description: PBM binding z-score (relative to random genomic background probes); higher = stronger binding; sequences stand for … in GC…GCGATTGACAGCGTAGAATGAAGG
Numbers only.

Check out these entries, answers already filled in.
> print(dat)
                           seq.string  readout.value
1  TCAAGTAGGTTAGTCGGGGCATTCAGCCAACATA          0.917
2  GCTAGTTGGTCAGTAACAGGTCACACACCGGTCG           2.24
3  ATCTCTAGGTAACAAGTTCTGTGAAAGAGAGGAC          0.332
4  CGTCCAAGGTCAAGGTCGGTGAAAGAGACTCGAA           5.34
5  TAGCCTAGGTCATTGGGCCAGTCTAGTACGCATC           3.53

Okay, now this sequence:
Report PBM binding z-score on RARb:RXRa (NR concentration 270 nM, RXRa partner concentration 90 nM) for this entry: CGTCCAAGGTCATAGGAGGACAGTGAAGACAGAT
4.98

###

- Tested on: LXRa homodimer (NR concentration 270 nM)
- measurement.description: PBM binding z-score (relative to random genomic background probes); higher = stronger binding; sequences stand for … in GC…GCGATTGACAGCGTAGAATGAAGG
Label rule, in plain words: PBM binding z-score of 0.4 and up is t, under 0.4 is f.

Please review the following examples before continuing.
> print(dat)
                           seq.string  cat
1  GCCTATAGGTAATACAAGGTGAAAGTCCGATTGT    f
2  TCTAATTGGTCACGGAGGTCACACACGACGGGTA    t
3  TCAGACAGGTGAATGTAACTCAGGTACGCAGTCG    f
4  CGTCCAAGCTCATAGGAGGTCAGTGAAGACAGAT    t

Does the reported PBM binding z-score for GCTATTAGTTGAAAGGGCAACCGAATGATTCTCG fall at or above the 0.4 mark?
t

Does the reported PBM binding z-score for CGTCCAAGGTCAGAGAGGTCAGGGAATGCCGAGT fall at or above the 0.4 mark?
t

Does the reported PBM binding z-score for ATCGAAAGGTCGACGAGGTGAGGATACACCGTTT fall at or above the 0.4 mark?
f

Does the reported PBM binding z-score for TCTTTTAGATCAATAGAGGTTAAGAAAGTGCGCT fall at or above the 0.4 mark?
t

Does the reported PBM binding z-score for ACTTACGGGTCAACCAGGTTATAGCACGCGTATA fall at or above the 0.4 mark?
t

Does the reported PBM binding z-score for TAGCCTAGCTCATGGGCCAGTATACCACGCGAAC fall at or above the 0.4 mark?
f

Does the reported PBM binding z-score for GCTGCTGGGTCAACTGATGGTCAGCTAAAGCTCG fall at or above the 0.4 mark?
f

Does the reported PBM binding z-score for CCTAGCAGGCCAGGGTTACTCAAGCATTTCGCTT fall at or above the 0.4 mark?
f

###

- System: VDR homodimer (NR concentration 270 nM)
- measurement.description: PBM binding z-score (relative to random genomic background probes); higher = stronger binding; sequences stand for … in GC…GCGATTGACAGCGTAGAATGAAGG
value.type: PBM binding z-score

Check out these entries, answers already filled in.
> print(dat)
                           seq.string                             assay.target           value.type  readout.value
1  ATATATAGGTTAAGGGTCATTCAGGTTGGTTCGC  VDR homodimer (NR concentration 270 nM)  PBM binding z-score            4.9
2  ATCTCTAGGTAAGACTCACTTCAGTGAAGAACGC  VDR homodimer (NR concentration 270 nM)  PBM binding z-score         -0.111
3  GATACAGGTTCAAGGCCAGAGTACGCGTATTGAT  VDR homodimer (NR concentration 270 nM)  PBM binding z-score           3.82
4  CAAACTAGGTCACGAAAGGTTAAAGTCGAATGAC  VDR homodimer (NR concentration 270 nM)  PBM binding z-score            1.8
5  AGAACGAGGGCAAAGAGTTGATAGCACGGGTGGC  VDR homodimer (NR concentration 270 nM)  PBM binding z-score           3.05

For each listed entry, give its PBM binding z-score.
1. TCTATTAGTGGAAGGGCAACCGACGAGTCCGTTT
2. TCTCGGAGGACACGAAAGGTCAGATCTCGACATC
3. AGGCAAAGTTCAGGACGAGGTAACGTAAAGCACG
4. CCTAGTTGGTCAGGAGGTCGCACACCGGATATGA
5. CCTACTGGGCAACGAAAGGTCATTGATTCAGTGA

1: 1.3; 2: 1.13; 3: 2.35; 4: 1.59; 5: 2.35

###

- Test system: PXR homodimer (NR concentration 270 nM)
- measurement.description: PBM binding z-score (relative to random genomic background probes); higher = stronger binding; sequences stand for … in GC…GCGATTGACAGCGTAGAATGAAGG
Kindly state PBM binding z-score for each of the entries shown.
One number for each entry.

Check out these entries, answers already filled in.
> print(dat)
                           seq.string           value.type  readout.value
1  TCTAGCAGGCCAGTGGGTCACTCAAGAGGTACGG  PBM binding z-score         -0.497
2  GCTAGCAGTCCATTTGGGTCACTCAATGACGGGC  PBM binding z-score          0.689
3  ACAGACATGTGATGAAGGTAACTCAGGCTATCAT  PBM binding z-score         -0.319

For each listed entry, give its PBM binding z-score.
1. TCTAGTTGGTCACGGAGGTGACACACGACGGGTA
2. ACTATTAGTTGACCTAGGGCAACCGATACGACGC
3. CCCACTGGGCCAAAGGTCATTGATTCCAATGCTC

1. -0.119
2. 0.901
3. 1.81

For each listed entry, give its PBM binding z-score.
1. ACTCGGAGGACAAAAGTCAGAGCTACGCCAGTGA
2. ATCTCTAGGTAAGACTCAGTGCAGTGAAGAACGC

1. -0.332
2. 0.592

For each listed entry, give its PBM binding z-score.
1. ACAGACAGGTGTGTGAAGGTAACTCAGCTGGACG
2. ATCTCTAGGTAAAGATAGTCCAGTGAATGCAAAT
3. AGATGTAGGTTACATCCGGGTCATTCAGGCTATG
4. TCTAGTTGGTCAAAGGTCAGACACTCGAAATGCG
5. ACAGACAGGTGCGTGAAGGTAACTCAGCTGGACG
6. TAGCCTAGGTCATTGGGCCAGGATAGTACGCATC

1. -0.457
2. 0.523
3. 2.06
4. 1.67
5. -0.495
6. -0.39

For each listed entry, give its PBM binding z-score.
1. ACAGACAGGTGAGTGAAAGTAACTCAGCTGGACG
2. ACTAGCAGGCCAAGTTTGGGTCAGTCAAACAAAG
3. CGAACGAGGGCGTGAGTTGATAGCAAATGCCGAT
4. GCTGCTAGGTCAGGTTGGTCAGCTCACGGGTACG
5. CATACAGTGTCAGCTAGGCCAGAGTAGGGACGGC
6. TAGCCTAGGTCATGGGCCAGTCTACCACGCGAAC
7. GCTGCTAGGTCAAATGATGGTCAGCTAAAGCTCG

[-0.648, -0.463, -0.37, 0.00075, -0.457, -0.884, -0.505]

For each listed entry, give its PBM binding z-score.
1. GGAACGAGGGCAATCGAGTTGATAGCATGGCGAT
2. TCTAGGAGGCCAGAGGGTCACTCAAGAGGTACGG

1: 0.305; 2: -0.35
